# protein stability index values compiled below
B1: ZNF207 (parent)
chain: FPSAGQAQAAVQGPVGTDFKPLNS

- Variants of: B1
- Protocol: protein stability index of a GFP-peptide fusion (GPS, HEK-293T) (PSI 1-6); higher = more stable;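 also: lentivirally expressed fusions sorted by FACS into six bins by GFP to DsRed ratio, PSI derived from sequencing read proportions per bin multiplied by bin number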
- Measurement setup: c terminus: a fixed tail appended
Observation type: protein stability index

Mutation code: Q6V
Reading: 3.41
//
Mutation code: K20T
Reading: 3.59
//
Mutation code: N23Q
Reading: 3.22
//
Mutation code: A4H
Reading: 3.71
//
Mutation code: N23V
Reading: 2.93
//
Mutation code: P14E
Reading: 3.92
//
Mutation code: G16M
Reading: 3.04
//
Mutation code: G16H
Reading: 3.52
//
Mutation code: P2R
Reading: 4.43
//
Mutation code: G16K
Reading: 3.12
//
Mutation code: N23P
Reading: 3.03
//
Mutation code: Q8K
Reading: 3.89
//
Mutation code: A4P
Reading: 4.16
//
Mutation code: S24I
Reading: 2.98
//
Mutation code: F19A
Reading: 3.85
